Entries and their IC50 values follow.
Biological target: Chymase (Homo sapiens)
Construct: purchased Enzo Lifescience BML-SE281
Assay: Serine protease inhibition: chymase
Format: biochemical, mammalian
Conditions: Table 8A, class symbols; read-out: IC50 Chymase
value type: IC50

structure as smiles: CSC(=O)N[C@H]1Cc2cccc(C(=O)O)c2OB1O
result: > 800 µM
//
structure as smiles: O=CN[C@H]1Cc2cccc(C(=O)O)c2OB1O
result: > 800 µM
//
structure as smiles: O=C(CSC(F)F)N[C@H]1Cc2cccc(C(=O)O)c2OB1O
result: 300 to 800 µM

====

Biological target: SHV-12 (Klebsiella pneumoniae, UniProt P0AD64, E235K/G234S/L31Q)
Sequence (P0AD64 22-286 L31Q/G234S/E235K): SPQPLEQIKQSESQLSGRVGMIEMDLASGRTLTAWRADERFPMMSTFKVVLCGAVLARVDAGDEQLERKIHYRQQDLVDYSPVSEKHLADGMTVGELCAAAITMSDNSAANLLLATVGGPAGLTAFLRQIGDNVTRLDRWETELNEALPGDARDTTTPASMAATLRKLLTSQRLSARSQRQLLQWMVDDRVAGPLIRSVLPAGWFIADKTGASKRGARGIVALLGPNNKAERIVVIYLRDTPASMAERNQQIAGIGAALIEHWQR
Test: Inhibition of nitrocefin cleavage by purified SHV-12
Assay type: biochemical
Conditions: nitrocefin reporter substrate, purified enzyme; read-out: Ki (SHV-12, NCF)
Entries and their Ki values follow.

compound: O=C(CSc1nncs1)N[C@H]1Cc2cccc(C(=O)O)c2OB1O
Ki: < 1 nM

compound: O=C(Cc1cccs1)N[C@H]1Cc2cccc(C(=O)O)c2OB1O [CPD A, reference compound]
Ki: < 1 nM

compound: NC(=O)C(=O)N[C@H]1Cc2cccc(C(=O)O)c2OB1O
Ki: 1 to 10 nM

compound: NC(=O)CC(=O)N[C@H]1Cc2cccc(C(=O)O)c2OB1O
Ki: < 1 nM

compound: O=C(CSC(F)(F)F)N[C@H]1Cc2cccc(C(=O)O)c2OB1O
Ki: < 1 nM

====

Target: Chymotrypsin (Bos taurus, UniProt P00766)
Construct: purchased Calbiochem 230832
Experiment: Serine protease inhibition: chymotrypsin
Type: biochemical, mammalian
value type: IC50

molecule: CC(=O)N[C@@H](CC(C)C)C(=O)N[C@@H](CC(C)C)C(=O)N[C@H](C=O)CCCNC(=N)N [Leupeptin, leupeptin, reference compound]
target or test system: Chymotrypsin (Bos taurus, UniProt P00766)
result: > 200 µM

====

Molecular target: Dipeptidyl peptidase 9 (DPP9) (Homo sapiens)
Construct: purchased BPS Bioscience 80090
Sequence (Q86TI2 whole entry): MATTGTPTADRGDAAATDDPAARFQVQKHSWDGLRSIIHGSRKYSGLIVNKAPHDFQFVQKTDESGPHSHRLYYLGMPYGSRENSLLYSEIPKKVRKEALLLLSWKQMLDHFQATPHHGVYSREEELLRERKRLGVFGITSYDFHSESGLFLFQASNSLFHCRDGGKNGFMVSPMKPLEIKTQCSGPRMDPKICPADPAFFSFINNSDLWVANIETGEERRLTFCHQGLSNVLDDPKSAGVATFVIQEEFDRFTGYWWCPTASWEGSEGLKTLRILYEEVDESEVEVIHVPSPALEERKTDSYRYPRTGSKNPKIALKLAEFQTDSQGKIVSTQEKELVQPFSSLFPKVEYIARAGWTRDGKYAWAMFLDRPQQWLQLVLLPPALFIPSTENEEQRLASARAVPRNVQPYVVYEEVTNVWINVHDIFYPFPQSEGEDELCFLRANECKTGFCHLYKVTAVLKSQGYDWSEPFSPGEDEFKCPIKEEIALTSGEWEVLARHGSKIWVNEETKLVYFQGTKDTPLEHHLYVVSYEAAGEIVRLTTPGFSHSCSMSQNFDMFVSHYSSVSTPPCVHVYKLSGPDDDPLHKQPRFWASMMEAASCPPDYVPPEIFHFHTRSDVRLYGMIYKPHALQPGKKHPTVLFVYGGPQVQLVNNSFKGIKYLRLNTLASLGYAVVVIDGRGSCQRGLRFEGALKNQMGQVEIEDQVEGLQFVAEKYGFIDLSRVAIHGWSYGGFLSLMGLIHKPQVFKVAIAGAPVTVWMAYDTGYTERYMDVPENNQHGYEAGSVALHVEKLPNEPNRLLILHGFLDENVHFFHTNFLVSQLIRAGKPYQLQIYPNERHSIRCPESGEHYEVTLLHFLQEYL
Assay: Serine protease inhibition: DPP9
Type: biochemical, mammalian

compound: CC(=O)N[C@@H](CC(C)C)C(=O)N[C@@H](CC(C)C)C(=O)N[C@H](C=O)CCCNC(=N)N [Leupeptin, leupeptin, reference compound]
IC50: 15 to 500 µM

====

Target: SHV-12 (Klebsiella pneumoniae, UniProt P0AD64, E235K/G234S/L31Q)
Experiment: Inhibition of nitrocefin cleavage by purified SHV-12
Assay type: biochemical
pKi: −log10 of the molar value.

compound: CSC(=O)N[C@H]1Cc2cccc(C(=O)O)c2OB1O [Compound 11]
pKi: > 9.00

====

Molecular target: Neutrophil elastase (Homo sapiens)
Construct: purchased Calbiochem 324681
Sequence (P08246 30-267): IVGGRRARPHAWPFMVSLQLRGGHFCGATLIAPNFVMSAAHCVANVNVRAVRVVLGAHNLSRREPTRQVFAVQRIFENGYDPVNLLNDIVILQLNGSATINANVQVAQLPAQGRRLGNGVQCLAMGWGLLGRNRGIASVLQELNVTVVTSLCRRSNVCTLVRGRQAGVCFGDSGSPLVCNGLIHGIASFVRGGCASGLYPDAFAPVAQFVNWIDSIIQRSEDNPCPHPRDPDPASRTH
Test: Serine protease inhibition: neutrophil elastase
Format: biochemical, mammalian
Where a name gives a salt, the structure may show the parent alone.

molecule: NCCc1ccc(S(=O)(=O)F)cc1 [AEBSF, hydrochloride, reference compound]
IC50: > 500 µM

====

Molecular target: Dipeptidyl peptidase 8 (DPP8) (Homo sapiens)
Construct: purchased BPS Bioscience 80080
Sequence (Q6V1X1 whole entry): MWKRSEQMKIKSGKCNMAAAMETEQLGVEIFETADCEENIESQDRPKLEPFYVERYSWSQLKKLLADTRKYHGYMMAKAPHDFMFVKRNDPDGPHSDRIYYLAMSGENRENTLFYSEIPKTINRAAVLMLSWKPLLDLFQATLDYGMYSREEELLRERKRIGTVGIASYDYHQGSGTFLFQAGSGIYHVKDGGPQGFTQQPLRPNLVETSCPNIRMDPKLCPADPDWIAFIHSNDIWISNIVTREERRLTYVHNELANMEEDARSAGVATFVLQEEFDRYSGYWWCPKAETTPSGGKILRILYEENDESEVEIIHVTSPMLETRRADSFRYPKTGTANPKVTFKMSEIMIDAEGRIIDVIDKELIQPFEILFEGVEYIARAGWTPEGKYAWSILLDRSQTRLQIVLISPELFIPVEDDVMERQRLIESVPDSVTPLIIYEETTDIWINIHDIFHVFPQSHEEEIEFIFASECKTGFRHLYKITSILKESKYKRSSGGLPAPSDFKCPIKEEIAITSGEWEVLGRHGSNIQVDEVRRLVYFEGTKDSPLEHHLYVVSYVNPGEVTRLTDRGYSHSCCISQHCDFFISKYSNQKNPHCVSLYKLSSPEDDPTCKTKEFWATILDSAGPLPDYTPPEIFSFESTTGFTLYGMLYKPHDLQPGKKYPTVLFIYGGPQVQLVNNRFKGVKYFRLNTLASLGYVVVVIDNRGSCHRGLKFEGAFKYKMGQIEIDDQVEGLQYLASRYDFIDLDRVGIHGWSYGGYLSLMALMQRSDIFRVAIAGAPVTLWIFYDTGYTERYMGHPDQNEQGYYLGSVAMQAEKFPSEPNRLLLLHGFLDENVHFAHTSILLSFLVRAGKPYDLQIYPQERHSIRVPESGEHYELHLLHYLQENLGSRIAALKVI
Experiment: Serine protease inhibition: DPP8
Assay type: biochemical, mammalian

compound: CC(=O)N[C@@H](CC(C)C)C(=O)N[C@@H](CC(C)C)C(=O)N[C@H](C=O)CCCNC(=N)N [Leupeptin, leupeptin, reference compound]
IC50: 15 to 500 µM

====

Target: Chymase (Homo sapiens, UniProt P23946)
Construct: purchased Enzo Lifescience BML-SE281
Sequence (P23946 22-247): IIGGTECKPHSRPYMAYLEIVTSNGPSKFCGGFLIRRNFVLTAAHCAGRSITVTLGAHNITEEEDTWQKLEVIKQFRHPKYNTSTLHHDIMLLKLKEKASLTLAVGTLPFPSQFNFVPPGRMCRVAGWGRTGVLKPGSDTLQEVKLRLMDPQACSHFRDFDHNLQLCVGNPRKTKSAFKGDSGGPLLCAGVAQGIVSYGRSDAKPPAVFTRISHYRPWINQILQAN
Experiment: Serine protease inhibition: chymase
Type: biochemical, mammalian
Conditions: Table 8A, class symbols; read-out: IC50 Chymase
pIC50: −log10 of the molar value.

compound: [N-]=[N+]=NCC(=O)N[C@H]1Cc2cccc(C(=O)O)c2OB1O
pIC50: < 3.10
//
compound: O=C(Cc1cccs1)N[C@H]1Cc2cccc(C(=O)O)c2OB1O [CPD A, reference compound]
pIC50: > 3.52
//
compound: O=C(CSc1nncs1)N[C@H]1Cc2cccc(C(=O)O)c2OB1O
pIC50: < 3.10
//
compound: O=C(COCc1ccccc1)N[C@H]1Cc2cccc(C(=O)O)c2OB1O [CPD B, reference compound]
pIC50: 3.10 to 3.52
//
compound: Nc1nnc(SCC(=O)N[C@H]2Cc3cccc(C(=O)O)c3OB2O)s1
pIC50: 3.10 to 3.52

====

Molecular target: CMY-2 (Klebsiella pneumoniae)
Sequence (Q48434 21-381, species assumed): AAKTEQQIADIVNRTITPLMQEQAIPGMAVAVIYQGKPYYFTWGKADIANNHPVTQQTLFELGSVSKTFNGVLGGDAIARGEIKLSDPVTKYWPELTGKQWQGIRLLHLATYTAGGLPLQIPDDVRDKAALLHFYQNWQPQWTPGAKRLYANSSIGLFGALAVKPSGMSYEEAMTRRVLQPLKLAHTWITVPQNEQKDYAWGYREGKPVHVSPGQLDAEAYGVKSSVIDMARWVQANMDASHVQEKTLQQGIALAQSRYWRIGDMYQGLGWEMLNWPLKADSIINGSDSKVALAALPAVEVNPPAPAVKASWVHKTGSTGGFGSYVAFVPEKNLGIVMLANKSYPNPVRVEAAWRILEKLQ
Experiment: Inhibition of nitrocefin cleavage by purified CMY-2
Conditions: nitrocefin reporter substrate, purified enzyme; read-out: Ki (CMY-2, NCF)
Method: Purified enzymes were mixed with various concentrations of inhibitors in reaction buffer and incubated for 10 min at room temperature. Nitrocefin was added and substrate cleavage profiles were recorded at 490 nm every 10 sec for 10 min.
Entries and their Ki values follow.
value type: Ki

compound: NC(=O)CC(=O)N[C@H]1Cc2cccc(C(=O)O)c2OB1O
result: 1 to 10 nM
--
compound: O=C(CSc1nncs1)N[C@H]1Cc2cccc(C(=O)O)c2OB1O
result: < 1 nM
--
compound: CSC(=O)N[C@H]1Cc2cccc(C(=O)O)c2OB1O
result: < 1 nM
--
compound: O=C(Cc1cccs1)N[C@H]1Cc2cccc(C(=O)O)c2OB1O [CPD A, reference compound]
result: < 1 nM
--
compound: O=CN[C@H]1Cc2cccc(C(=O)O)c2OB1O
result: 1 to 10 nM
--
compound: NC(=O)C(=O)N[C@H]1Cc2cccc(C(=O)O)c2OB1O
result: 1 to 10 nM

====

Target: SHV-12 (Klebsiella pneumoniae, UniProt P0AD64, E235K/G234S/L31Q)
Experiment: Inhibition of nitrocefin cleavage by purified SHV-12
Assay type: biochemical
Conditions: nitrocefin reporter substrate, purified enzyme; read-out: Ki (SHV-12, NCF)
pKi: −log10 of the molar value.
Entries and their pKi values follow.
value type: pKi

molecule: Cn1nnnc1SCC(=O)N[C@H]1Cc2cccc(C(=O)O)c2OB1O [Compound 2]
value type: pKi
result: > 9.00
--
molecule: O=CN[C@H]1Cc2cccc(C(=O)O)c2OB1O [Compound 4]
value type: pKi
result: 8.00 to 9.00
--
molecule: NC(=O)N[C@H]1Cc2cccc(C(=O)O)c2OB1O [Compound 6]
value type: pKi
result: 8.00 to 9.00
--
molecule: O=C(CSC(F)F)N[C@H]1Cc2cccc(C(=O)O)c2OB1O [Compound 3]
value type: pKi
result: > 9.00
--
molecule: O=C(COCc1ccccc1)N[C@H]1Cc2cccc(C(=O)O)c2OB1O [CPD B, reference compound]
value type: pKi
result: > 9.00
--
molecule: O=C(N[C@H]1Cc2cccc(C(=O)O)c2OB1O)c1cncs1 [Compound 15]
value type: pKi
result: > 9.00
--
molecule: [N-]=[N+]=NCC(=O)N[C@H]1Cc2cccc(C(=O)O)c2OB1O [Compound 8]
value type: pKi
result: > 9.00
--
molecule: O=C(N[C@H]1Cc2cccc(C(=O)O)c2OB1O)c1cccnc1 [Compound 12]
value type: pKi
result: > 9.00
--
molecule: Nc1nnc(C(=O)N[C@H]2Cc3cccc(C(=O)O)c3OB2O)s1 [Compound 19]
value type: pKi
result: > 9.00

====

Target: HtrA2 (Homo sapiens, UniProt O43464)
Sequence (O43464 134-458, species assumed): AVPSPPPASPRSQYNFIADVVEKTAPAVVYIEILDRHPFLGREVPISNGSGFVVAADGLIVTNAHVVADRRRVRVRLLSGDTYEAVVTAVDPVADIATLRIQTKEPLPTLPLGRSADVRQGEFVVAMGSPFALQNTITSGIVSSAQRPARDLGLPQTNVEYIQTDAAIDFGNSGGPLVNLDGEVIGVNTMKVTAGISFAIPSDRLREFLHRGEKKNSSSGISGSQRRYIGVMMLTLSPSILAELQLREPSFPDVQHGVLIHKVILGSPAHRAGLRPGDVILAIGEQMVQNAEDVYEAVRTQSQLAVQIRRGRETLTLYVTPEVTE
Test: Serine protease inhibition: HtrA2
Type: biochemical, mammalian
pIC50: −log10 of the molar value.

compound: CC(=O)N[C@@H](CC(C)C)C(=O)N[C@@H](CC(C)C)C(=O)N[C@H](C=O)CCCNC(=N)N [Leupeptin, leupeptin, reference compound]
target or test system: HtrA2 (Homo sapiens, UniProt O43464)
pIC50: < 3.30

====

Biological target: UniProt Q9L5C7
Sequence (Q9L5C7 entry or part of it): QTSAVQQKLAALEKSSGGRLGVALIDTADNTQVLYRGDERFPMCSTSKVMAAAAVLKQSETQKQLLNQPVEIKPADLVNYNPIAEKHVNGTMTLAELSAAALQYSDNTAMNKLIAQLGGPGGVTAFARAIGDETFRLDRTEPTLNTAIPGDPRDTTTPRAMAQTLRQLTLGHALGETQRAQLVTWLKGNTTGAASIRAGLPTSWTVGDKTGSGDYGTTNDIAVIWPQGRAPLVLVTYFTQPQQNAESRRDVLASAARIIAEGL
Test: Inhibition of nitrocefin cleavage by purified CTX-M-14
Conditions: nitrocefin reporter substrate, purified enzyme; read-out: Ki (CTX-M-14, NCF)
Method: Purified enzymes were mixed with various concentrations of inhibitors in reaction buffer and incubated for 10 min at room temperature. Nitrocefin was added and substrate cleavage profiles were recorded at 490 nm every 10 sec for 10 min.
pKi: −log10 of the molar value.

molecule: Nc1nnc(SCC(=O)N[C@H]2Cc3cccc(C(=O)O)c3OB2O)s1
target or test system: UniProt Q9L5C7
pKi: 8.00 to 9.00

molecule: O=C(N[C@H]1Cc2cccc(C(=O)O)c2OB1O)c1cccnc1
target or test system: UniProt Q9L5C7
pKi: > 9.00

molecule: NC(=O)CC(=O)N[C@H]1Cc2cccc(C(=O)O)c2OB1O
target or test system: UniProt Q9L5C7
pKi: 8.00 to 9.00

molecule: O=C(N[C@H]1Cc2cccc(C(=O)O)c2OB1O)c1cncc(F)c1
target or test system: UniProt Q9L5C7
pKi: > 9.00

molecule: O=CN[C@H]1Cc2cccc(C(=O)O)c2OB1O
target or test system: UniProt Q9L5C7
pKi: 8.00 to 9.00

molecule: O=C(Cc1cccs1)N[C@H]1Cc2cccc(C(=O)O)c2OB1O [CPD A, reference compound]
target or test system: UniProt Q9L5C7
pKi: > 9.00

molecule: NC(=O)C(=O)N[C@H]1Cc2cccc(C(=O)O)c2OB1O
target or test system: UniProt Q9L5C7
pKi: 8.00 to 9.00

molecule: CSCC(=O)N[C@H]1Cc2cccc(C(=O)O)c2OB1O
target or test system: UniProt Q9L5C7
pKi: > 9.00

molecule: O=C(N[C@H]1Cc2cccc(C(=O)O)c2OB1O)c1cncs1
target or test system: UniProt Q9L5C7
pKi: > 9.00

molecule: O=C(COCc1ccccc1)N[C@H]1Cc2cccc(C(=O)O)c2OB1O [CPD B, reference compound]
target or test system: UniProt Q9L5C7
pKi: > 9.00

molecule: O=C(CSc1nncs1)N[C@H]1Cc2cccc(C(=O)O)c2OB1O
target or test system: UniProt Q9L5C7
pKi: > 9.00

molecule: NC(=O)N[C@H]1Cc2cccc(C(=O)O)c2OB1O
target or test system: UniProt Q9L5C7
pKi: 8.00 to 9.00
